Test: amyloid nucleation score (Sup35N fusion, yeast selection) (log enrichment); library NNK3; higher = more nucleation; inactive = no reads after selection;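 further: zero at mode of non-aggregating sequences after 7 days selection at 30°C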
REPORTED PROPERTY: amyloid nucleation score

{"columns": ["SUBSTANCE", "RESULT VALUE"],
 "data": [
  ["FCFSSVEKNWLQRVMFLRVS", "inactive"],
  ["FGTMSSGYAGGNKKFHPHRY", "inactive"],
  ["GYNFNEENINMLHQREFSLS", "inactive"],
  ["NHGATLFECSYCNCSLAFR", 2.83],
  ["YIYRKCVD", "inactive"],
  ["PTILWAQYAGWGSKVWPPRL", "inactive"],
  ["IEGSYIDMFLYSYLMSGSLI", "inactive"],
  ["RSAKAYLTLWCRMYNPRIYM", -0.345],
  ["ICAMAYADRTFSTSKGSK", "inactive"],
  ["CYVDVI", "inactive"],
  ["IWSIQLSFKIASSCNFATG", "inactive"],
  ["LKCFEMNYQYGRRLNNG", "inactive"],
  ["SCDRVFNLDVNRWKLMRKTC", "inactive"],
  ["YMPFYDSCVRHAYRSSFR", 0.038],
  ["VRVILNAGLKNGRKVLNLGR", "inactive"],
  ["HKYKQIWMFPEGPV", "inactive"],
  ["AISYYYEHARLGWYGVELRP", "inactive"]
]}
